System: SK-MEL-5 melanoma
assay.notes: NCI-60 one-dose screen, 48 h
measurement.conditions: 10 µM unless noted
Compounds without any hit were thinned out: in the full panel of roughly 83,000, 20% have a hit. Calls of active or inactive are those of the source. Rule for the calls: active = growth percent below 10; inactive = the rest.
Write down one outcome, taken from True for active, False for inactive

Solved cases (3 shown):
smiles.str	tested.target	group
COc1ccc(/C=C/C(=O)c2ccc(OC)c(S(N)(=O)=O)c2)c(C(F)(F)F)c1	SK-MEL-5 melanoma	False
COc1sc(/C=N/NC(=O)c2[nH]c3ccc(Br)cc3c2-c2ccccc2)cc1Cl	SK-MEL-5 melanoma	True
CCCSc1nnc(-c2c(C)nc3sccn23)o1	SK-MEL-5 melanoma	False

Record lookup: outcome of this test for "Fc1ccc(N2CC(Cn3c(C(F)(F)F)cc4c(Cl)ncnc43)C2)c(F)c1" ?
False

Query: recorded result category for "COc1ccc(/C=C/C(=O)c2ccc(S(=O)(=O)NCCNc3nc(N(C)C)nc(N4CCOCC4)n3)cc2)cc1" in this test
False

* * *

Test system: MDA-MB-435 melanoma
assay.notes: NCI-60 one-dose screen, 48 h
measurement.conditions: 10 µM unless noted
This is part of a sample that, as a whole, favours compounds with a hit. Of some 83,000 tested, about 20% had one in any assay. Calls of active or inactive are those of the source. The calls were made as follows: active = growth percent below 10; inactive = the rest.
In this exercise, the only acceptable responses are active, inactive

smiles.str	group
O=C1Nc2cc(-c3ccc(NS(=O)(=O)c4ccc(C(F)(F)F)cc4)cc3)ccc2/C1=C/c1ccc[nH]1	active

Per the assay record, what outcome was assigned to "Cc1oc(-c2ccccc2)nc1CN[C@@H]1C[C@@H]2C[C@H]([C@H]1C)C2(C)C" ?
inactive

What did the test return for "O=C(N=Nc1c(O)[nH]c2ccc(Br)cc12)c1ccc2nc(-c3ccc(Cl)cc3)[nH]c2c1" ?
active

Status in this test for "O=C(CSc1nnc(-c2ccc(-c3nc4ccc(Cl)cc4[nH]3)cc2)o1)Nc1ccc(Br)cc1" ?
inactive

For this compound, state the assay outcome: "COc1ccc(-c2nc3ccc(-c4nnc(SCc5ccccc5)o4)cc3[nH]2)cc1OC"
inactive

* * *

Tested on: SK-OV-3 ovarian
assay.notes: NCI-60 one-dose screen, 48 h (100 = growth as untreated, 0 = no growth, -100 = all killed)
measurement.conditions: 10 µM unless noted
This is part of a sample that, as a whole, favours compounds with a hit. Of some 83,000 tested, about 20% had one in any assay.
measurement.kind: growth (%)
Report only the number, with the unit % understood.

Solved entries:
molecule	unit.spec	growth
COc1nc(N)ncc1-c1ccc2ncnc(N3CCc4cc(F)c(Cl)cc43)c2c1	%	-36.6
COc1ccc(N=Nc2c(N)nn3c(N)c(C#N)c(-c4ccccc4)nc23)cc1	%	13.1
C#CCN(C)CCCOc1ccc(N(CC)C(=O)c2cc(C(C)C)c(O)cc2O)cc1Cl	%	7.75
CN1CCN(C(=O)Oc2cc3c(c4ccccc24)[C@H](CCl)CN3C(=O)c2cc3cc(OCCCN4CCC4)ccc3[nH]2)[C@H]2CSSC[C@H]21	%	-16.5
COC(=O)c1cc(C(=O)C(C)(C)C)n2c3ccccc3c3ccccc3c12	%	109

Name the reported growth value associated with the molecule COc1c(F)ccc(C(=O)Nc2ccc3nc(NC(=O)C4CCCN(S(=O)(=O)c5ccc(C(C)(C)C)cc5)C4)sc3c2)c1F (centres undefined)
80.8

Can you look up the measured growth of "C=CCSc1nnc(-c2c(C)nc3sccn23)o1" for me?
98.6

Which measured growth value corresponds to "COc1ccc2[nH]cc(-c3cc(N)n4nc(-c5c[nH]c6ccccc56)cc4n3)c2c1" ?
3.49

Need growth of "CN1CCc2c(sc3ncnc(N/N=C/c4cccc(Cl)c4Cl)c23)C1" , thanks.
90.6

Give its growth value. Item: "COc1ccc(-c2cc(-c3cc(OC)c(OC)c(OC)c3)[nH]c(=O)c2C#N)cc1"
30.7

What does the data say about its growth? Entry: "O=C(NNC(=O)c1ccc(OCc2nc3ccc(Cl)cc3[nH]2)cc1)Nc1ccc(Cl)c(C(F)(F)F)c1"
92.4

# growth lookup, item "O=C(NN1C(=O)/C(=C/C=C/c2ccc([N+](=O)[O-])o2)SC1=S)c1ccc([N+](=O)[O-])cc1"
-100

Need growth, item "Nc1nc(-c2ccccc2)c(N=Nc2ccc(Cl)cc2Cl)s1"
7.41

Reported growth for "O=C(CSc1nnc(-c2ccc(-c3nc4ccccc4[nH]3)cc2)o1)Nc1ccccc1" : what is it?
84.7

* * *

System: A549/ATCC NSCLC
assay.notes: NCI-60 one-dose screen, 48 h
measurement.conditions: 10 µM unless noted
Compounds without any hit were thinned out: in the full panel of roughly 83,000, 20% have a hit. Active and inactive are the calls of the source. Rule for the calls: active = growth percent below 10; inactive = the rest.
Give one outcome, nothing more. List: yes (1) = active, no (0) = inactive

compound	tested.target	group
Cc1nc(Nc2ccccn2)sc1C1=NNC(c2ccccc2F)C1 (stereo not given)	A549/ATCC NSCLC	no (0)
COc1c2c(c(Br)c3c1C(CCc1ccccc1)N(C)CC3)OCO2 (stereo not given)	A549/ATCC NSCLC	no (0)
CCCCCCCCc1ccc(C(=O)Nc2ccc(C)c(OP(=O)(O)O)c2)cc1	A549/ATCC NSCLC	no (0)
CCOC(=O)c1ccc(NC(=S)NC(=O)c2ccc(NC(=O)C(C)C)cc2OC)cc1	A549/ATCC NSCLC	no (0)
O=C1NC(=S)/C(=C/c2cn(-c3ccccc3)nc2-c2ccccc2)S1	A549/ATCC NSCLC	no (0)
O=c1ccc(Cn2c(C(F)(F)F)cc3c(Cl)ncnc32)c[nH]1	A549/ATCC NSCLC	no (0)
Cn1cc(-c2cc(N)n3nc(-c4c[nH]c5ccccc45)cc3n2)c2cc(Br)ccc21	A549/ATCC NSCLC	yes (1)
CN1CCN(CCS(=O)(=O)Nc2cc(-c3ccc4ncnc(Nc5ccc(F)c(Cl)c5)c4c3)cnc2Cl)CC1	A549/ATCC NSCLC	no (0)

Field: outcome | Entry: "Clc1ccc2c(NCCNC34CC5CC(CC(C5)C3)C4)ccnc2c1"
yes (1)

Dear colleague, could you share the recorded outcome for CCOC(=O)/C(F)=C/C1CC1CCc1ccc(OCC)cc1 (stereo not given) when you have a moment?
no (0)

Record lookup: outcome of this test for COc1ccc([C@H]2C(C(=O)c3ccc(Cl)cc3)C3(N[C@@H]2c2ccccc2)C(=O)Nc2ccccc23)cc1 (stereo not given in full) ?
no (0)

State the result this test recorded for "N/C(=N\c1nc2ccc([N+](=O)[O-])cc2s1)NC(=O)Nc1ccccc1Cl" .
yes (1)

Short answer needed: outcome of this test for COc1c2c(cc3c1C(CCc1ccccc1)N(C)CC3)OCO2 (stereo not given) ?
no (0)

Which outcome was entered for the compound "COc1ccc(-c2nc3ccc(-c4nnc(SCc5ccccc5)o4)cc3[nH]2)cc1OC" in this test?
yes (1)

What outcome does the record of this test show for "COc1ccc2[nH]c(O)c(N=Nc3nc(-c4ccccc4)cs3)c2c1" ?
yes (1)

Hey, what did the test say about "COc1ccc(-c2nnc3c(/C=C/c4ccc(Br)cc4)nc4ccccc4n23)cc1" ?
no (0)

Test call for this compound, please: N#CC1=C(c2cccs2)Nc2c(c(-c3ccccc3)nn2-c2ccccc2)C12C(=O)Nc1ccc(Cl)cc12 (stereo not given)
no (0)

Please share the test call associated with "Cc1[nH]nc2ccc3nc(-c4cn[nH]c4C(F)(F)F)c4c(c3c12)CCCC4" .
yes (1)

Per the assay record, what outcome was assigned to "Nc1cccc(-n2c(COc3ccc(I)cc3)nc3ccccc32)c1" ?
no (0)

Recorded call for "CCN1CCN(Cc2ccc(C(=O)Nc3cccc(Nc4ccc5c(OC)cccc5n4)c3)cc2C(F)(F)F)CC1" ?
yes (1)

* * *

Test system: RXF 393 renal
assay.notes: NCI-60 one-dose screen, 48 h
measurement.conditions: 10 µM unless noted
The panel holds about 83,000 compounds, 20% with a hit somewhere; the sample as a whole holds those more often. Activity calls are given as the source filed them. The calls were made as follows: active = growth percent below 10; inactive = the rest.
Answer with one of the outcomes given here: 1 = active, 0 = inactive

molecule	tested.target	group
CN1C(=O)C2(C(C#N)=C(c3ccc(Cl)cc3)Nc3c2c(-c2ccccc2)nn3-c2ccccc2)c2ccccc21 (stereo not drawn)	RXF 393 renal	0
COc1ccc2[nH]c(=O)c(CSc3ccccc3Nc3nccc(-c4ccc(Cl)cc4)n3)cc2c1	RXF 393 renal	1
Cn1cc(-c2cc(N)n3nc(-c4c[nH]c5ccccc45)cc3n2)c2ccccc21	RXF 393 renal	1
FC(F)(F)CN1CCN(CCn2c(C(F)(F)F)cc3c(Cl)ncnc32)CC1	RXF 393 renal	0
COc1ccc(C2=NN(C(=O)[C@H]3[C@@H](c4ccco4)c4sc(=O)[nH]c4S[C@@H]3C)C(c3ccc4ccccc4c3)C2)cc1 (stereo partly drawn)	RXF 393 renal	0

Call for entry "COc1ccc(-n2c(NC(=O)N3CCN(C)CC3)c(C#N)c3ccccc32)cc1" :
1

Query: recorded result category for CCN(C(=O)CN1C(=O)/C(=C/c2ccco2)SC1=S)C1CCS(=O)(=O)C1 (stereo not drawn) in this test
0

Dear all, I need the recorded test outcome for "O=C(N=Nc1c(O)[nH]c2ccc(Cl)cc12)c1ccc2nc(-c3ccc(Cl)cc3)[nH]c2c1" , thank you.
1

How did this test come out for "N#C/C(=C/c1ccc(Cl)cc1)c1nnc(NC(=O)c2ccc(-n3c(=O)[nH]c4ccccc4c3=O)cc2)s1" ?
0

Hi, do you know how "CS(=O)(=O)c1ccc(-n2nc(C(=O)NCc3ccccc3)cc2-c2ccc(Cl)cc2)cc1" came out in this test?
0
